# Tested on: lactate dehydrogenase from Ogataea parapolymorpha (OgLDH)
# procedure_details: Thermal stability of OgLDH (residual activity ratio after heat treatment)
# Assay type: biochemical
# condition_label: OgLDH 2 U/mL; compound 300 mM; potassium phosphate buffer pH 7.5; 50°C for 15 minutes
measurement_type: LDH stability improving effect (%)
A number alone suffices; assume %.

The recorded LDH stability improving effect with lactate dehydrogenase from Ogataea parapolymorpha (OgLDH) for Cl.NCCCC[C@H](N)C(=O)O [L-lysine hydrochloride] was 66

N[C@@H](Cc1c[nH]cn1)C(=O)O tested on lactate dehydrogenase from Ogataea parapolymorpha (OgLDH) gave LDH stability improving effect: 27

Form field, LDH stability improving effect with lactate dehydrogenase from Ogataea parapolymorpha (OgLDH), item NCC(=O)O : 11

Item: O=C([O-])CC(=O)[O-].[Na+].[Na+] [disodium malonate] | System: lactate dehydrogenase from Ogataea parapolymorpha (OgLDH) | LDH stability improving effect: 96

---

# Tested on: lactate dehydrogenase from Pichia kudriavzevii (PkLDH)
# procedure_details: Thermal stability of PkLDH (residual activity ratio after heat treatment, potassium phosphate buffer)
# Assay type: biochemical
# condition_label: PkLDH 2 U/mL; added compound 300 mM; 150 mM potassium phosphate buffer pH 7.5, 0.15% BSA; 55°C for 15 minutes
Kindly supply the reported Residual activity ratio (%) values for the records listed here.
Quick note: give the figure in %, leave out the unit.

Entry N[C@@H](CC(=O)O)C(=O)[O-].[Na+] [Sodium aspartate, L-sodium aspartate] — recorded Residual activity ratio (%) = 64

The reported value for O=C([O-])CC(O)(CC(=O)[O-])C(=O)[O-].[Na+].[Na+].[Na+] [Sodium citrate, sodium citrate] in terms of Residual activity ratio (%) is 42

Noted for O=C(O)/C=C\C(=O)O : its Residual activity ratio (%) reads 45

Reported Residual activity ratio (%) for N.N.O=S(=O)(O)O [Ammonium sulfate, ammonium sulfate] was 54

Sure, the documented Residual activity ratio (%) for O=C(O)C(O)Cc1ccccc1 (racemic) is 87

response.value for O=C([O-])[C@H](O)[C@@H](O)[C@H](O)[C@H](O)CO.[Na+] [Sodium gluconate, sodium gluconate] (field: Residual activity ratio (%)) = 57

---

# Test system: lactate dehydrogenase from Pichia kudriavzevii (PkLDH)
# procedure_details: Thermal stability of PkLDH (residual activity ratio after heat treatment, potassium phosphate buffer)
# Type: biochemical
# condition_label: PkLDH 2 U/mL; added compound 300 mM; 150 mM potassium phosphate buffer pH 7.5, 0.15% BSA; 55°C for 15 minutes
Field: Residual activity ratio (%). Provide a value for each of the compounds that follow.
Dear colleague, please return just the value in %, with no unit written.

Entry under test: O=C(O)CC(=O)C(=O)O . Its Residual activity ratio (%) was 45

Item: O=C(O)CCC(=O)O | Residual activity ratio (%): 54

Data point: O=C(O)C[C@@H](O)C(=O)O ; Residual activity ratio (%) = 47

Form: compound = OC[C@H]1O[C@@](CO)(O[C@H]2O[C@H](CO)[C@@H](O)[C@H](O)[C@H]2O)[C@@H](O)[C@@H]1O ; Residual activity ratio (%) = 42

Entry under test: O=S(=O)([O-])[O-].[Na+].[Na+] [Sodium sulfate, sodium sulfate] . Its Residual activity ratio (%) was 50

compound O=C(O)C[C@H](O)C(=O)O , Residual activity ratio (%) observed: 80

Recorded result, O=C(O)/C=C/C(=O)O , Residual activity ratio (%): 41

Lookup result for OC[C@H]1O[C@H](O[C@H]2O[C@H](CO)[C@@H](O)[C@H](O)[C@H]2O)[C@H](O)[C@@H](O)[C@@H]1O [Trehalose dihydrate, trehalose dihydrate] ; measured Residual activity ratio (%): 41
